meta.source: the METLIN SMRT retention time set (Domingo-Almenara et al. 2019)

experiment: gradient 5% acetonitrile 3 min, to 50% in 2 min, to 85% in 15 min, held 3 min, 100 µL/min; conditions: column: Zorbax Extend-C18 2.1 x 50 mm; eluents: water / acetonitrile, 0.1% formic acid
outcomeMeasure: RP-LC retention time (s)
One number for each entry, in s.

// below: answered molecules
>>> reportedmeasurement("CC(C)CNC(=O)C1CCCN(c2nccn3nc(-c4ccccc4Cl)cc23)C1 (centres undefined)")
872
>>> reportedmeasurement("CCc1nc2cc(N3CCC(C(=O)NCCN4CCCCC4C)CC3)cnc2nc1CC (centres undefined)")
605
>>> reportedmeasurement("CC(C)CCNC(=O)C1CCN(c2cnn(Cc3ccccc3)c(=O)c2)CC1")
790
>>> reportedmeasurement("O=C(Nc1ccccc1)C1CCN(C(=O)c2ncn3c2COC(c2ccc(F)cc2)C3)CC1 (centres undefined)")
791

I would be grateful if you could provide RP-LC retention time for each of the following entries.
1. O=C(NCCc1c[nH]c2ccc(F)cc12)c1cn(-c2ccc(F)cc2)nn1
2. C[C@@H](NC(=O)c1ccccc1F)C(=O)NCc1cscn1
3. Cc1ccc(Sc2nccnc2N2CCCC(C(=O)NCC3CCCO3)C2)cc1 (centres undefined)
4. CCOc1ccc(CC(=O)Nc2ccc3c(c2)Sc2ncccc2C(=O)N3C)cc1
5. CCCn1ccc2sc(C)c(C(=O)NCc3ccc(SC)cc3)c2c1=O

Result:
914
620
917
931
919
